Values from the supplement of paper PMC3545927

Field: furin cleavage Z-score. Provide a value for each of the sequences that follow.
target: furin, P09958; experiment: furin cleavage Z-score vs untreated control; higher = more cleavage, active = 3.5 or more, inactive = 1 or less, 8 variable residues between constant flanks; details: 7.5 min;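 note: purified furin at 1:10 enzyme:substrate in 50 mM HEPES pH 7.5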
Sequence (P09958 whole entry): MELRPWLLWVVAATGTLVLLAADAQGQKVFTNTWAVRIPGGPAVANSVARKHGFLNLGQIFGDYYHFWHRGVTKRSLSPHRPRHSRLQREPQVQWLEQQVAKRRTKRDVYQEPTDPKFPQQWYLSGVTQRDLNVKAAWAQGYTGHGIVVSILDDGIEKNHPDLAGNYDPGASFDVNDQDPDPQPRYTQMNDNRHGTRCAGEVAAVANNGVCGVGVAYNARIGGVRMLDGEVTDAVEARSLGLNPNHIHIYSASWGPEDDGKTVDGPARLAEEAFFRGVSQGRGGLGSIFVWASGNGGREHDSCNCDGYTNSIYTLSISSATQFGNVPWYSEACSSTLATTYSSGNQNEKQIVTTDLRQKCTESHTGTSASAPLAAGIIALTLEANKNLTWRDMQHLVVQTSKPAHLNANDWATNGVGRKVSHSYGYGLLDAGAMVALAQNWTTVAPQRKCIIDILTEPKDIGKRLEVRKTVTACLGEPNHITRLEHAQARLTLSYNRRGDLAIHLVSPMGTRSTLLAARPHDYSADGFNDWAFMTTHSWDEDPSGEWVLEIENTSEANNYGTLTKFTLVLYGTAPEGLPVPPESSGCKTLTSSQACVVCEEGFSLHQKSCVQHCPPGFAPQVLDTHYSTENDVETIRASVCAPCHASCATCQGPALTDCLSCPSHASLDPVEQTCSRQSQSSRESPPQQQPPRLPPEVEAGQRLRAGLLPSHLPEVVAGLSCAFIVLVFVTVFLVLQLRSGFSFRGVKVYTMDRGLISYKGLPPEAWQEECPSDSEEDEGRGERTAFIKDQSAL
The other results are listed elsewhere or left out. How many sequences the whole screen found active is unknown.
Answers are plain numbers.

Below: 3 sequences and their reported furin cleavage Z-score.
CARRRRPERGAGNASASA [FS-495]    1.03
CATEECSQHLAGNASASA [HC1678]    -0.115
CASVFLVGQLAGNASASA [HC302]    -1.01

Lab note: next sequence to report on.
Reported furin cleavage Z-score for CAEVWTSTWVAGNASASA [HC2188] : what is it?
0.933
